src = PubChem BioAssay AID449762

assay: M. tuberculosis growth inhibition, HTS (AID 449762);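 further: bacterial growth assessed after seven days of incubation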; details: M. tuberculosis H37Rv growth inhibition, 7H9 media; at 25 µM; stronger effect = higher value
Among all 330,000 compounds or so, about 1,900 (0.58%) were called active. Roughly 4% stayed inconclusive and do not appear here. Not all results are given here. Potency and affinity values are given separately.
Entries annotated with measured inhibition
Provide the reading as a plain figure in %.

Example entries and their recorded answers appear below.
>  <Compound>
CCCCOc1ccc(C(=O)N2CCN(c3ccc(N4CCOCC4)nn3)CC2)cc1

>  <inhibition, %>
37.3

$$$$
>  <Compound>
Cc1cnc(NC(=O)CC2CCCC2)s1

>  <inhibition, %>
1.33

$$$$
>  <Compound>
Cc1nnc(SCC(=O)N(Cc2ccccc2)C(C)(C)C)[nH]c1=O

>  <inhibition, %>
3.28

$$$$
>  <Compound>
COc1ccc(NS(=O)(=O)c2cc(NC(=O)C3CC3)ccc2N2CCCCC2)cc1

>  <inhibition, %>
1.69

$$$$
>  <Compound>
CC(C)SC1=NC(C)(C)C=C(/C=C/c2ccc(Cl)cc2Cl)N1

>  <inhibition, %>
23.8

$$$$

Entry "CC(C)(C)OC(=O)N1CCC[C@H]1c1nnc(SCc2c(F)cccc2Cl)o1" needs its inhibition filled in; supply it. 5.9

Indicate the recorded inhibition value for this compound: "Cc1cc(OC(=O)C(c2ccccc2)c2ccccc2)c([N+](=O)[O-])c(=O)[nH]1" 1.27

Report inhibition, nothing else, for this compound: "CCc1cc(-c2nc(N)ncc2-c2ccc(Br)cc2)c(O)cc1OC" 14.9

---

assay: M. tuberculosis growth inhibition, HTS (AID 449762);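 further: bacterial growth assessed after seven days of incubation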; conditions: M. tuberculosis H37Rv growth inhibition, 7H9 media; at 25 µM; stronger effect = higher value
About 1,900 (0.58%) of roughly 330,000 compounds were called active. Another 4% or so got no clear call; they are omitted. These entries were drawn from the full list. Results with a measured potency or affinity are listed apart.
Reported endpoint: inhibition (%)
Numbers only here, please. The scale is %.

Recorded results for 5 compounds are shown here.
>  <Compound>
CN(C)S(=O)(=O)c1cccc(NC(=O)CSc2nc3ccccc3[nH]2)c1

>  <Observed result>
-2.08

$$$$
>  <Compound>
O=C1CC2(CCCCC2)Oc2ccccc21

>  <Observed result>
2.84

$$$$
>  <Compound>
O=C(CN1CCN(c2ccccc2Cl)CC1)NC1CCCc2ccccc21 (stereo unspecified)

>  <Observed result>
7.47

$$$$
>  <Compound>
CCOc1cc(/C=N/NC(=O)COc2ccc(C)cc2)ccc1OC(=O)c1cccs1

>  <Observed result>
8.62

$$$$
>  <Compound>
C[n+]1cnn2c1SCC1(COC1)C2

>  <Observed result>
3.72

$$$$

Tell us which inhibition value is on record for O=C(O)COc1ccccc1/C=N/NC(=O)C(O)c1ccccc1 (stereo unspecified) -3.84

Return inhibition (reported value) for this compound: "COc1ccc(-c2cc(C(=O)N/N=C(\C)c3cccnc3)c3cc(C)ccc3n2)cc1OC" -3

For "Cc1c(OCc2nn[nH]n2)ccc2c3c(c(=O)oc12)CCCC3" , write its inhibition. -3.72

Give recorded inhibition. "Cc1cc(C)c(C(=O)COC(=O)[C@H](C)Nc2ccc(C(F)(F)F)cc2[N+](=O)[O-])c(C)c1" -3.25

Given the compound "Clc1cccc(Cl)c1C1Nc2cccc3cccc(c23)N1" , write its reported inhibition. 14.4

Identify the reported inhibition for the following entry. O=C(CN1CCN(c2cccc(Cl)c2)CC1)NC1CCCc2ccccc21 (stereo unspecified) 11.3

---

assay: M. tuberculosis growth inhibition, HTS (AID 449762);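 further: bacterial growth assessed after seven days of incubation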; conditions: M. tuberculosis H37Rv growth inhibition, 7H9 media; at 25 µM; stronger effect = higher value
The campaign covered roughly 330,000 compounds. About 1,900 (0.58%) were called active. Roughly 4% stayed inconclusive and do not appear here. A selection follows. Results with a measured potency or affinity are listed apart.
Reported endpoint: inhibition (%)
Dear colleague, please return just the value in %, with no unit written.

Some molecules with known inhibition results, for comparison:
>  <Molecule>
CC(=O)C1=NOC(CNc2ncc(C(F)(F)F)cc2Cl)C1 (stereo unspecified)

>  <Observed result>
-4.07

$$$$
>  <Molecule>
Cc1cccc(-c2noc(-c3cc4ccccc4oc3=O)n2)c1

>  <Observed result>
-1.72

$$$$
>  <Molecule>
CCN(C(=O)c1cnc2scc(C)n2c1=O)c1ccccc1C

>  <Observed result>
-2.4

$$$$
>  <Molecule>
O=Cc1ccccc1OS(=O)(=O)c1ccccc1

>  <Observed result>
-6.41

$$$$
>  <Molecule>
Cc1ccc2cccc(OCC(=O)NCCC3=CCCCC3)c2n1

>  <Observed result>
37.1

$$$$
>  <Molecule>
O=C(CCc1nc(-c2ccccc2F)no1)NCCc1ccccc1Cl

>  <Observed result>
-5.37

$$$$
>  <Molecule>
O=c1oc2ccccc2cc1-c1nc(-c2ccccc2)no1

>  <Observed result>
23.8

$$$$
>  <Molecule>
Cc1nc(-c2nnc(SCC(=O)Nc3cc(Cl)cc(Cl)c3)n2C)cs1

>  <Observed result>
-8.27

$$$$

Query inhibition for "COc1cccc(N2CCN(Cc3nc(N)nc(N4CCCc5ccccc54)n3)CC2)c1" 55.4

Input "Cc1ccc(S(=O)(=O)NNC(=O)CCC(=O)Nc2ccc(C)cc2C)cc1" , output reported inhibition. 5.58

For the molecule "O=C(Nc1ccc(-c2nc3ccccc3s2)cc1)c1cc(-n2cnnc2)ccc1Cl" , give its reported inhibition. -1.18

---

assay: M. tuberculosis growth inhibition, HTS (AID 449762);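 further: bacterial growth assessed after seven days of incubation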; details: M. tuberculosis H37Rv growth inhibition, 7H9 media; at 25 µM; stronger effect = higher value
In all, about 330,000 compounds went through this assay and about 1,900 (0.58%) were called active. About 4% were inconclusive and are not listed. The list is a sample of the results. Potency and affinity values are given separately.
Reported endpoint: inhibition (%)
The answer is to be given in %; state only the numeric part.

>  <Compound>
O=C(O)C(O)C(O)C(O)C(O)C(=O)O (configuration not stated) (tested in a mixture with another compound)

>  <inhibition / %>
3.48

$$$$
>  <Compound>
CCOc1ccc(N2C(=O)CCC2=O)cc1

>  <inhibition / %>
-7.32

$$$$

Quick one: give measured inhibition for "COC(=O)/C(C#N)=C/c1ccc(-c2ccc(S(N)(=O)=O)cc2)o1" -0.94

Annotate the compound "C1=Nc2ccccc2CN1c1ccccc1" with its measured inhibition. -10.9

Identify the reported inhibition for the following entry. "Cc1ccc(CNC(=O)CCc2c(C)nc3c(c(C)nn3-c3ccc(C)cc3)c2C)cc1" 0.88

Assign inhibition to the following record: "Oc1ccccc1CN1CCN(C(O)(c2ccccc2)c2ccccc2)CC1" 12.9

Consider the compound O=C(O)C1C2C=CC(C2)C1C(=O)NCc1ccc(Cl)cc1Cl (configuration not stated) and give its recorded inhibition. 7.08

Give the value of inhibition reported for the following: COC1=CC2[C@@H]3Cc4ccc(OC)c(O)c4[C@]2(CCN3C)CC1=O (some centres not stated) 6.39

---

assay: M. tuberculosis growth inhibition, HTS (AID 449762);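 further: bacterial growth assessed after seven days of incubation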; conditions: M. tuberculosis H37Rv growth inhibition, 7H9 media; at 25 µM; stronger effect = higher value
Screen size: about 330,000 compounds; about 1,900 (0.58%) were called active. Roughly 4% stayed inconclusive and do not appear here. These entries were drawn from the full list. Entries with a potency or affinity are not part of this list.
Listed below: inhibition values for each entry.

>  <Compound>
O=C1c2ccccc2C(=O)N1c1ccc(Cl)cc1

>  <Observed result>
-5.93% (inactive)

$$$$
>  <Compound>
COc1ccc(Br)cc1/C=N/NC(=O)c1cc(OC)c(OC)c(OC)c1

>  <Observed result>
-3.85% (inactive)

$$$$
>  <Compound>
CCOc1ccccc1N(CC(=O)Nc1ccc2c(c1)OCO2)S(C)(=O)=O

>  <Observed result>
-15.7% (inactive)

$$$$
>  <Compound>
CN(C)CCN[C@H]1CCC2C3CC=C4C[C@@H](O)CC[C@]4(C)C3CC[C@@]21C (some centres not stated)

>  <Observed result>
1.3% (inactive)

$$$$
>  <Compound>
COc1ccc(NC(=O)C2CCCN2S(=O)(=O)c2ccc3c(c2)CCC(=O)N3)cc1 (configuration not stated)

>  <Observed result>
-21% (inactive)

$$$$

State its inhibition: "O=C(OCC#CCSc1nnc(-c2cccc3ccccc23)o1)c1cc2ccccc2o1" 36.1% (inactive)

In one line, give reported inhibition of the entry "O=C(Nc1ccccc1N1CCCCC1)c1cccc(Cl)c1" . 8.39% (inactive)

Give the reported inhibition for this compound. "CCC(=O)NCCCCCCCCCNC(=O)CC" -4.93% (inactive)

---

test: M. tuberculosis growth inhibition, HTS (AID 449762);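 further: bacterial growth assessed after seven days of incubation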; settings: M. tuberculosis H37Rv growth inhibition, 7H9 media; at 25 µM; stronger effect = higher value
The whole screen tested about 330,000 compounds, of which about 1,900 (0.58%) were called active. Roughly 4% stayed inconclusive and do not appear here. A selection follows. Potency and affinity values are given separately.
Reported endpoint: inhibition (%)
The reply should be a number in %, with the unit left off.

Using the record for "CCOC(=O)CNC(=O)CNC(=O)c1ccc(OCC(C)C)cc1" , state its measured inhibition. 22.7

Provide only the value of recorded inhibition for "O=C(O)c1ccccc1Nc1cccc(OCc2ccc3ccccc3n2)c1" -1.2

// fetch inhibition given entry OC(Cn1ccnc1)c1ccc(Cl)cc1Cl (stereo not drawn) -8.18

Give reported inhibition value for "Cc1ccc(N(CC(=O)Nc2cccc(Cl)c2C)S(C)(=O)=O)cc1" 7.2

Read the entry "COc1ccccc1CCC(=O)NNC(=O)c1cccs1" and write its reported inhibition. -0.29

// fetch inhibition given entry "NC1=NC(=O)/C(=C/C=C/c2cccs2)S1" 18.7

Fill in inhibition for record "Cc1ccccc1CN1CCN(Cc2ccccc2)CC1" -6.4
